Target: human GABAA α5β3*γ2s receptors (Homo sapiens, UniProt P18507+P31644)
Sequence (P31644 32-462): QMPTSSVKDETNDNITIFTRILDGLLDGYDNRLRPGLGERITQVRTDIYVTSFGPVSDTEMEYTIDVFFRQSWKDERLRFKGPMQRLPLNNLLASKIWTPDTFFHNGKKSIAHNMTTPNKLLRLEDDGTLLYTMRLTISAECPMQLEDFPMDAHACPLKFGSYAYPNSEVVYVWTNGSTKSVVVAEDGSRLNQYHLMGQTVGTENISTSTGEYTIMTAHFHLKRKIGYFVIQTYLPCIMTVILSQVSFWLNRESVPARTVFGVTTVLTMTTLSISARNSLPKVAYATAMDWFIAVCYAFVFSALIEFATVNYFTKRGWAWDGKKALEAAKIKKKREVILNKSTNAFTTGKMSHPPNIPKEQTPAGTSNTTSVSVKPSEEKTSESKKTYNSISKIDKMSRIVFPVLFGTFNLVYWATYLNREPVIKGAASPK
Sequence (P18507 40-467 isoform P18507-1 limits assumed): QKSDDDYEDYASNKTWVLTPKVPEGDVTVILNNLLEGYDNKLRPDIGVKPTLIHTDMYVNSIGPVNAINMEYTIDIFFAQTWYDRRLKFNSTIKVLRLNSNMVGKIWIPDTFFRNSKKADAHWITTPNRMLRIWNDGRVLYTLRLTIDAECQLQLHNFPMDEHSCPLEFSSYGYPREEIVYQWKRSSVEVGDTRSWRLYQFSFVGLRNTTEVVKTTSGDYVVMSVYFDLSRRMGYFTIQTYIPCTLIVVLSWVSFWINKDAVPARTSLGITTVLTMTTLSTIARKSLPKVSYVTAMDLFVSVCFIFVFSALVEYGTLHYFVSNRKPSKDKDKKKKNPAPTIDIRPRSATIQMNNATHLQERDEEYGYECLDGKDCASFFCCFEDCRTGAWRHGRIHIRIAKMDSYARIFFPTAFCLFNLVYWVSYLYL
Experiment: In vitro inhibition of 3H-flumazenil binding, HEK cells expressing the human GABAA α5β3*γ2S receptor
Protocol: When the cultures reach confluency, the DMEM is removed and the cells are washed (10 ml for T175 flasks; 50 ml for roller bottles) once in Dulbecco's Phosphate Buffered Saline (DPBS). […] Non-specific binding is determined using clonazepam (1 μM, final concentration). […] The amount of radioactivity on the filters is determined by conventional liquid scintillation counting using a […]
measurement label: Ki (nM)
Just the number in nM, nothing appended.

Query :: Query: Ki; subject: "NC(=O)c1ccc(OCc2c(C(F)F)nnn2-c2ccc(F)cc2)nn1"
Result :: 87
